test system: MCF7 breast; assay: NCI tumour cell line growth inhibition, 48 h
Property label: TGI

The molecule listed as CSc1cc(Cl)c(C)cc1S(=O)(=O)NC(=O)NNc1ccc(Cl)cc1 shows TGI equal to > 100 µM

The molecule listed as CCOC1Oc2ccccc2-c2oc(=O)c(Sc3ccc(C)cc3)cc21 (centres undefined) shows TGI equal to > 100 µM

The molecule listed as COCCOCCOCc1n(Cc2ccc3ccccc3n2)c2ccccc2[n+]1Cc1ccc2ccccc2c1 shows TGI equal to 1.34 µM

The molecule listed as COC(=O)[C@]12CC[C@H]3CN(C(=O)OCc4ccccc4)[C@H]([C@H]31)[C@H](c1ccco1)N2S(=O)(=O)c1ccc(C)cc1 shows TGI equal to 42 µM

The molecule listed as CC(C)COP(=O)(OCC(C)C)C(NS(=O)(=O)c1ccccc1)(C(F)(F)F)C(F)(F)F shows TGI equal to > 100 µM

The molecule listed as NC(=O)c1cccc(Nc2nccc(Nc3cccc(F)c3)n2)c1 shows TGI equal to > 25 µM

The molecule listed as Cc1ncc(C(=O)Nc2ccc(CN3CCN(C)CC3)c(C(F)(F)F)c2)cc1C#Cc1cnc(NC2CC2)c2ncccc12 shows TGI equal to 1.18 µM

The molecule listed as O=c1oc(-c2ccc(O)c(O)c2)cc2cccc(O)c12 shows TGI equal to > 54.1 µM

The molecule listed as CS(=O)(=O)OCCn1c(=O)n(CCOS(C)(=O)=O)c(=O)n(CCOS(C)(=O)=O)c1=O shows TGI equal to > 100 µM

====

Could you please report measured GI50 for the items listed next?
system: CCRF-CEM leukemia; assay: NCI tumour cell line growth inhibition, 48 h

The compound listed as O=C1c2cccnc2-c2nc(-c3ccncc3)cc3c2c1nc1ccccc13 shows GI50 equal to 8030 nM

The compound listed as c1ccc(Cn2cnc3ccc(-c4nc(-c5ccc6c(c5)ncn6C5CCCCC5)cn5ccnc45)cc32)cc1 shows GI50 equal to 2180 nM

The compound listed as O=S1(=O)NCCCN1CCNc1nccc(-c2c(-c3cccc(O)c3)nc3sccn23)n1 shows GI50 equal to 13500 nM

The compound listed as COCCOCCOCc1n(Cc2ccc3ccccc3n2)c2ccccc2[n+]1Cc1ccc2ccccc2c1 shows GI50 equal to 532 nM

The compound listed as O=C1C(Cl)=C(Nc2ccccc2)C(=O)c2ccccc21 shows GI50 equal to 2370 nM

The compound listed as CC1(C)N=C(N)N=C(N)N1c1ccc(OCC(=O)Nc2ccccc2)c(Cl)c1 shows GI50 equal to 2170 nM

The compound listed as CC1CCCc2c1nn(C(=O)/C=C(\N)c1ccccc1)c2N (configuration not stated) shows GI50 equal to 6800 nM

====

tested on: K-562 leukemia; experiment: NCI tumour cell line growth inhibition, 48 h
Property label: TGI

The compound listed as O=C(CNc1ccccc1Cl)Nn1c(-c2ccccc2)nc2ccccc2c1=O shows TGI equal to 97.2 µM

The compound listed as O=c1ccc2cc3ccc4cccc5ccc(c2o1)c3c45 shows TGI equal to > 100 µM

The compound listed as CCCCCCCCCCN=C(c1ccc(N(C)C)cc1)c1ccc(N(C)C)cc1 shows TGI equal to > 100 µM

The compound listed as C=CCC1[C@@H](C(C)(C)C(C(C)=O)C(=O)C(=O)OC)OC(C(C)(C)C)N1C(=O)OC (stereo partly specified) shows TGI equal to > 100 µM

The compound listed as COc1ccc2cc3c4cc5c(cc4cc[n+]3cc2c1OC)OCO5 shows TGI equal to > 100 µM

The compound listed as CC12CC(=O)C3C(C(=O)C1)C32C (stereo unspecified) shows TGI equal to > 100 µM

The compound listed as Cc1ccc(S(=O)(=O)N/N=C(\c2nc3ccc([N+](=O)[O-])cc3[nH]c2=O)C(O)c2ccccc2Cl)cc1 (stereo unspecified) shows TGI equal to > 100 µM

The compound listed as Brc1cccc(Nc2nc(-c3cccs3)nc3ccc(Br)cc23)c1 shows TGI equal to > 100 µM

The compound listed as N=S(c1ccccc1)c1ccccc1[N+](=O)[O-] (stereo unspecified) shows TGI equal to 45 µM

The compound listed as O=C(NC(Cc1ccc(I)cc1)C(=O)O)c1ccc(I)cc1 (stereo unspecified) shows TGI equal to > 100 µM

The compound listed as O=C(NCCCN(CCCCN(CCCNC(=O)C(F)(F)F)Cc1ccccc1)Cc1ccccc1)C(F)(F)F shows TGI equal to 30.6 µM

The compound listed as CN(C)C(=S)S shows TGI equal to > 100 µM

The compound listed as C=C(CN1CCc2ccccc2C1)c1ccc(C(=O)Nc2ccccc2N)cc1 shows TGI equal to > 11.3 µM

The compound listed as NC(=O)/C=C/C(=O)O shows TGI equal to > 5000 µM

The compound listed as CC(=O)OC1COC(n2c(=S)n(-c3ccccc3)c(=O)c3cc(Br)ccc32)C(OC(C)=O)C1OC(C)=O (stereo unspecified) shows TGI equal to > 100 µM

The compound listed as O=C1C(Cl)=C(Nc2ccccc2)C(=O)c2ccccc21 shows TGI equal to > 100 µM

The compound listed as C[C@H]1[C@H](C)CC[C@]2(C(=O)NCCNCCN)CC[C@]3(C)C(=CC[C@@H]4[C@@]5(C)CCC(=O)C(C)(C)[C@@H]5CC[C@]43C)[C@H]12 shows TGI equal to 5.35 µM

The compound listed as O=c1ncccn1C1C=C(CO)C(O)C1O (stereo unspecified) shows TGI equal to > 50 µM

The compound listed as CCOc1cc(C2CC(c3ccc(NS(=O)(=O)c4cc([N+](=O)[O-])ccc4C)cc3)=NN2C(=O)c2ccccc2)ccc1O (stereo unspecified) shows TGI equal to > 100 µM

The compound listed as CC(C)c1ccccc1NC(=O)/C(Cl)=C1/Sc2ccccc2NC1=O shows TGI equal to > 100 µM

The compound listed as COCCOCCOCc1n(Cc2ccc3ccccc3n2)c2ccccc2[n+]1Cc1ccc2ccccc2c1 shows TGI equal to 1.7 µM

The compound listed as Cn1c([N+](=O)[O-])cnc1/C=C1\Oc2cc(Cl)ccc2C1=O shows TGI equal to 21 µM

The compound listed as CC1(c2ccccc2)CC(c2ccccc2)=NO1 (stereo unspecified) shows TGI equal to > 100 µM

The compound listed as O=c1c(Cl)c(Cl)cnn1CCc1ccncc1 shows TGI equal to > 100 µM

The compound listed as COc1ccc(CC(C)C(C)Cc2ccc(OC)c(OC)c2)cc1OC (stereo unspecified) shows TGI equal to > 1400 µM

The compound listed as COC(=O)c1c2c(cc3c1CC1(C3)Cc3cc4c(c(C(=O)OC)c3C1)CCCC4)CCCC2 shows TGI equal to > 100 µM

The compound listed as CN(C)c1ccc(C=C2N=C(c3ccccc3)N(c3cc(C(=O)c4ccccc4)ccc3N3C(=O)/C(=C/c4ccc(N(C)C)cc4)N=C3c3ccccc3)C2=O)cc1 shows TGI equal to > 100 µM

The compound listed as CC(=O)[O-].CC(=O)[O-].CC(=O)[O-].CC(=O)[O-].[Mo+2].[Mo+2] shows TGI equal to > 100 µM

The compound listed as CCCn1c(CN(Cc2nc3ccccc3n2CCC)Cc2nc3ccccc3n2CCC)nc2ccccc21 shows TGI equal to 32.1 µM

The compound listed as O=C(O)CCC(NC(=S)S)C(=O)O.[Na+].[Zn+2] (stereo unspecified) shows TGI equal to > 50 µM

The compound listed as O=C1c2cccnc2-c2nc(-c3ccncc3)cc3c2c1nc1ccccc13 shows TGI equal to > 100 µM

The compound listed as O=C(c1ccc2ccccc2c1)c1c(C(F)(F)F)n([O-])c2ccc(Cl)cc2[n+]1=O shows TGI equal to 2.65 µM

The compound listed as O=c1c2cc3c(cc2[nH]c2ncccc12)OCO3 shows TGI equal to > 10 µM

The compound listed as Cc1csc(-c2cn(C)c3c2C(=O)C(N)=CC3=O)n1 shows TGI equal to > 100 µM

The compound listed as COC(=O)/C(C#N)=C1\CCC(C(=O)OC)N1C (stereo unspecified) shows TGI equal to > 100 µM

The compound listed as OB1OCc2cc(/C=C/c3cccc(C(F)(F)F)c3)ccc21 shows TGI equal to 24.2 µM

The compound listed as Nc1c(-c2cccc3ccccc23)c2ccc([N+](=O)[O-])cc2c(=O)n1-c1nc2ccccc2s1 shows TGI equal to > 100 µM

The compound listed as CC(=O)N(C(C)=O)C1=C2c3ccccc3N(S(=O)(=O)c3ccccc3)C2n2c(=O)n(-c3ccccc3)c(=O)n2C1 (stereo unspecified) shows TGI equal to > 100 µM

The compound listed as Cc1cc(N(CCC#N)CCC#N)ccc1/C=C1N=C(/C=C/c2ccccc2)OC(=O)N\1 shows TGI equal to > 100 µM

The compound listed as CCOC(=O)c1ccc(N[C@@H]2c3cc4c(cc3C(C3=CC(=O)C(=O)C(OC)=C3)[C@H]3C(=O)OCC32)OCO4)cc1 (stereo partly specified) shows TGI equal to > 69.4 µM

The compound listed as CC(CC(=O)Nc1ccc(NC(=O)CC(C)N=NC(N)=S)cc1)N=NC(N)=S (stereo unspecified) shows TGI equal to > 100 µM
